Readings of polymerase ribozyme fitness (log ratio) for the listed variants
B1: TPR t1 (parent)
chain: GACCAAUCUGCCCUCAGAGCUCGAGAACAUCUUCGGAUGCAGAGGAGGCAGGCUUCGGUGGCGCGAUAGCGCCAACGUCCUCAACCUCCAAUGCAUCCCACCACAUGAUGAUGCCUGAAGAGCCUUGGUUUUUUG

Variants of: B1
protocol description: polymerase ribozyme fitness, log enrichment relative to wild type (log ratio); higher = more active; in vitro selection for triplet polymerase activity
Keep it simple and answer with nothing but the number.

Reference set, count: 6
1. C3U G61A A91U : -1.66
2. G60U G135C : 0.0909
3. C53G C114A U125C : -2.07
4. A16C G48A C73U : -3.7
5. A46U C72G : -1.4
6. A18U C79A : -4.95

response.value for U7A U38G C49A (field: polymerase ribozyme fitness (log ratio)) = -0.102

// field: polymerase ribozyme fitness (log ratio); key: C3G G63C A68C A111U U112G G113A ; value = -5.32

Sample A6U G69A C124A ; polymerase ribozyme fitness (log ratio) observed: -1.22

Lab note: U38A G63A gave polymerase ribozyme fitness (log ratio) of -2.12

Value of measured polymerase ribozyme fitness (log ratio) for the entry U9C G10A G93A : -0.147

Entry G45U G77U U132C ; polymerase ribozyme fitness (log ratio) = -1.59
